Reported melting point is given for each of the following compounds.

// known answers, use as guide
CNCCCc1nc2ccccc2[nH]1 | 134 to 136 °C
COc1cc(-c2snnc2C)cc2oc(=O)c(C)c(C)c12 | 204 to 206 °C
COc1cc2ncc(C#N)c(Nc3cccnc3)c2cc1OC | 231 to 233 °C
CCn1c2ccc(C)cc2c2c3ccccc3ccc21 | 69 to 74 °C
CN(C)CCNC(=O)Cc1ccc(OCc2ccc(-c3ccccc3)cc2)cc1 | 160 to 161 °C

Prompt: Fill in the blank: the reported melting point of `CCOC(=O)c1c(Cl)nc2cc(Cl)c(F)cc2c1CCl` is ____.
Response: > 250 °C

Prompt: // melting point lookup, key: `CCCOc1ccccc1-c1nc2ncncc2c(=O)[nH]1`
Response: 142 to 143 °C

Prompt: For the compound shown here, `CS(=O)(=O)Oc1ccc(S)cc1` , give the reported melting point.
Response: 66 to 68 °C

Prompt: Which value of melting point has been reported for `O=C(Cc1ccccc1)c1ccc(SCC(F)(F)F)cc1` in the records?
Response: 60 to 61 °C

Prompt: Item under review: `N#Cc1ccc(-c2ccc(C#N)cc2-c2nc3ccccc3[nH]2)c(-c2nc3ccccc3[nH]2)c1` . Reported melting point?
Response: 347 to 349 °C

Prompt: Look up melting point: `CN(C)CCOc1ccc2nc(C#N)nc(NC3CCCC3)c2c1`
Response: 158 to 160 °C

Prompt: Looking for the measured melting point of `O=C(NNC(=O)c1occc1-c1cccc(OCc2ccccc2)c1)c1ccc(O)c([N+](=O)[O-])c1` , can you help?
Response: 171 to 173 °C

###

// reported melting point for each item listed

Some compounds with recorded melting point:
CCn1ncc2c(Cl)c(C#N)cnc21 | 100 to 102 °C
Cc1cc(-c2nc3cccnn3c2-c2ccnc(NC(=O)c3ccsc3)c2)ccc1F | 217 to 218 °C

Prompt: // melting point lookup, key: `Clc1ccc(-c2nc[nH]c2-c2cccs2)cc1`
Response: 244 to 245 °C

Prompt: Form field: reported melting point of `Cc1cccc(CSCCNC(=O)c2c(Cl)cccc2Cl)c1`
Response: 56 to 57 °C

Prompt: I am curious: what melting point value has been reported for O=C(NC(CO)c1ccccc1)c1ccccc1 (stereo not given) ?
Response: 235 to 236 °C

Prompt: Requested field: melting point. Item: Cc1c(NC(=O)CC(C)(C)C)cc2c(c1C)OC(C)(C)C2Cc1ccccc1 (stereo not given)
Response: 186 to 187 °C

Prompt: Param item = `Cc1cc(-c2ccccc2C#N)ccc1[N+](=O)[O-]` ; retrieve measured melting point.
Response: 128 to 136 °C

Prompt: Entry `COc1cc(C)nc(N(C)C(=O)NS(=O)(=O)c2cc(Cl)ccc2Cl)n1` : reported melting point = ?
Response: 182 to 185 °C

Prompt: Any idea what melting point was measured for `CC1(C)CC(OC(=O)CCc2cc(-n3nc4ccc(S(=O)(=O)c5ccccc5)cc4n3)c(O)c(C(C)(C)C)c2)CC(C)(C)N1` ?
Response: 85 to 125 °C

Prompt: melting point for `Clc1ccc(-c2nc(Cl)cc(NCCN3CCOCC3)n2)cc1` ?
Response: 127 to 129 °C

###

measurement.type: melting point

Guide cases for melting point, answers given:
COc1cc([N+](=O)[O-])c(NCCO)c([N+](=O)[O-])c1 | 104 °C
COc1cc(NC(=O)N[C@H]2CCCCNC2=O)c(O)c(C(C)(C)C)c1 | 178 to 179 °C
CCn1c2s[nH]c(=O)c2c(=O)c2cc(F)c(F)c(OC(F)F)c21 | 211 to 213 °C
Fc1ccc(-c2csc(NN=Cc3cn(Cc4ccc(Cl)cc4Cl)c4ccccc34)n2)cc1 | 198 °C

Prompt: Dear colleague, I am looking for the recorded melting point of the following compound: CC(F)(F)c1cccc(C[C@@H](NC(=O)c2ccc(F)c3ccccc23)[C@@H](O)c2ccc(F)cc2)c1 (racemic)
Response: 182 to 183 °C

Prompt: # lookup: melting point of `CS(=O)(=O)c1ccc(-c2cc(CBr)nn2-c2ccc(Cl)cc2)cc1`
Response: 60 to 64 °C

Prompt: Need melting point, item CCOC(=O)N1C(=O)N(C(=O)OCc2ccccc2)C2(C1=O)C(=O)N(Cc1ccc(Cl)c(Cl)c1)c1ccccc12 (centres undefined)
Response: 128 to 131 °C

Prompt: // lookup melting point for `CCOC(=O)c1[nH]cc(-c2ccc(F)cc2)c1-c1ccc(F)cc1`
Response: 157 to 159 °C

Prompt: Sample `CNC(=O)c1cccc(NC(=O)NCc2ccccc2)c1` — what was its melting point?
Response: 189 to 190 °C

###

The reader will find reported melting point values listed item by item below.

Brc1cccc(OCc2ccc3ccccc3c2)c1 | 109 to 112 °C
COC(=O)C=Cc1cn(Cc2ccc(C(=O)OC(C)(C)C)cc2OC)c2cc(C(=O)NCC3CCCC3)ccc12 | 163 to 164 °C
C#CCOc1nc(-n2nc3ccc(Cl)cn3c2=O)c(F)cc1C#N | 207 to 209 °C
COc1cccc(C=Cc2nc3c(s2)N(C(C)=O)CCC3)c1OC | 185 to 187 °C

Query compound follows.
Prompt: Can you look up the measured melting point of `COC(=O)c1cc([N+](=O)[O-])c(-c2ccccc2)c([N+](=O)[O-])c1` for me?
Response: 148 °C

###

measurement.type: melting point

# annotated cases, reported melting point shown
COc1ccsc1C(=O)C1C(=O)N(C(N)=O)c2ccc(Cl)cc21 (stereo not given) | 86 to 88 °C
NC(=O)c1ccc(-c2ccc3nnn(Cc4ccc5ncccc5c4)c3n2)cc1F | 198 to 200 °C
CC(C)(O)CN1c2cccnc2C(N)=CC1Cc1ccccc1 (stereo not given) | 211 to 213 °C

Prompt: What value of melting point has been recorded for this entry: `CCCCNc1ccc(OC)c(Cl)c1Cl`
Response: 47 to 49 °C

Prompt: Which value of melting point has been reported for `O=C(O)Cc1cc(Br)c(S(=O)(=O)c2ccc(O)c(I)c2)c(Br)c1` in the records?
Response: 174 to 176 °C

Prompt: Would you kindly share the measured melting point for `CN1C(=O)C(C)(C)Oc2ccc(C3=NNC(=O)CC3)cc21` ?
Response: 169 to 171 °C

Prompt: Query (compound): `CC1(c2ccc(C3(O)CCCCCC3)cc2)OCCO1` ; field requested: melting point
Response: 77 to 79 °C

Prompt: # lookup: melting point of CCCCC(=O)NC(C(=O)OCc1ccccc1)C(C)C (stereo not given)
Response: 118 to 127 °C

Prompt: May I ask what melting point has been recorded for `O=C(Nc1ccc(-n2nc(C(F)(F)F)cc2C(F)(F)F)cc1)c1c(Cl)ccc([N+](=O)[O-])c1Cl` ?
Response: 160 to 161 °C

Prompt: What does the record list as melting point for COc1ccc(S(=O)C(C)(CC=C(C)C)C(=O)NO)cc1 (stereo not given) ?
Response: 108 °C

###

measurement.type: melting point

Known melting point results, listed for orientation:
COC(=O)C(=Cc1cccc(O)c1)NC(C)=O | 115 °C
Cc1ccc2c(c1)[nH]c(=O)n2CCCl | 120 °C
N#CN(Cc1ccc([N+](=O)[O-])cc1)C(=O)CCCC(=O)N(C#N)Cc1ccc([N+](=O)[O-])cc1 | 146 to 148 °C
O=C(Nc1ccc(OCCN2CCOCC2)c2ccccc12)c1cc(F)cc(OC2CCCC2)c1 | 117 to 119 °C
O=C(O)C1=Cc2cc(Cl)cc(Cl)c2SC1C(F)(F)F (centres undefined) | 218 to 220 °C

Prompt: Name the recorded melting point for Cc1ccc(S(=O)(=O)OCC2Cc3cccc(-c4cc(Cl)cc(Cl)c4)c3O2)cc1 (centres undefined) .
Response: 113 to 115 °C

Prompt: Could you share which melting point value was measured for `COCCCNS(=O)(=O)NC(=O)OC/C=C/c1ccc(OCCOC)cc1Oc1ncc(C(F)(F)F)cc1Cl` ?
Response: 98 to 100 °C

Prompt: Name the recorded melting point for `COc1ccc(-n2nc(Sc3ccc(OC(F)(F)F)cc3)c(C)c(C#N)c2=O)cc1` .
Response: 165 to 167 °C

Prompt: What melting point value was documented for this molecule, `Clc1ccc(-c2cc(Cl)c3cc(Cl)ccc3n2)cc1` ?
Response: 204 to 208 °C

###

measurement.type: melting point

Answered examples (5):
Cc1cnc(CSc2cc3ccccc3[nH]2)cc1N1CCCCC1 | 138 to 139 °C
CCOC(=O)c1cc(CC)sc1Nc1ccc([N+](=O)[O-])cc1N | 174 to 176 °C
COc1cc(N)c(Cl)cc1C(=O)NCC1CCN(CCCCC(=O)c2ccccc2)CC1 | 100 to 102 °C
CCNC(=O)CN1C(=O)C(NC(=O)OCc2ccccc2)N=C(c2ccccc2)c2ccccc21 (stereo unspecified) | 149 °C
CSc1cc(N)ccc1[N+](=O)[O-] | 178 to 182 °C

Switching to the query record.
Prompt: Suppose we examine the compound `COCCOc1ccc(Nc2cc(Nc3ccc(F)c(Cl)c3)ncn2)cc1` ; what melting point value has been reported?
Response: 208 to 210 °C
